- system.tested: glucagon receptor (GCGR) (human, UniProt P47871 26-477)
- Sequence (P47871 26-477): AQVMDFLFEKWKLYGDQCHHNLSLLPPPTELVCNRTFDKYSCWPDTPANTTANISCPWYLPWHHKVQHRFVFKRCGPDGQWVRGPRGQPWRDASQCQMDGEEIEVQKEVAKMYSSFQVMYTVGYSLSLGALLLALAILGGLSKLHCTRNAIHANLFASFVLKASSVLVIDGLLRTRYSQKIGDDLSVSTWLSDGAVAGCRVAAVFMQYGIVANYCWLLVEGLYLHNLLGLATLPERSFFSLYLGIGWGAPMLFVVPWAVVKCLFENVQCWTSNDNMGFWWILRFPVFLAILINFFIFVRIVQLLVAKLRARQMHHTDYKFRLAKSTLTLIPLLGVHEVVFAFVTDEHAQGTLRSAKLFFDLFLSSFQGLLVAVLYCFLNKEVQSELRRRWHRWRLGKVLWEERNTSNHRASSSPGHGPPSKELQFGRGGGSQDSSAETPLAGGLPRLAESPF
- assay.text: cell-based or functional assay
Starred links: 1 amine or outer side, 2 acyl side, 3 side chain; linkers in the order of their positions; H or OH if unused. Non-standard residues stand in square brackets, D forms with d. Groups on a side chain read outwards from the residue. Primed or numbered codes have the meaning given here. No end group written: not given here. *: point of attachment. γGlu = O=C(O)[C@H](CCC(=O)[*:2])N[*:1]; Stearoyl = CCCCCCCCCCCCCCCCCC(=O)*; αMeF = C[C@](N)(Cc1ccccc1)C(=O)O; αMeK = C[C@](N)(CCCCN)C(=O)O; αMeS = C[C@](N)(CO)C(=O)O; PEG2′ = not defined here; Aib = CC(C)(N)C(=O)O
// values below are reported cAMP Primary assay EC50 Gluc-R (2nd)
Write the number in nM without appending the unit.

                                     binder                    parameter_measured  recorded_value
0  H[Aib]EGS[αMeF]TSDV[αMeS]S[αMeF]LEGEAAK([PEG2′-Stearoyl])E[αMeF]IA[αMeF]VV[αMeK]GG-NH2 [SEQ ID NO 152]  cAMP Primary assay EC50 Gluc-R (2nd)              28

Okay, now this binder:
Looking for the measured cAMP Primary assay EC50 Gluc-R (2nd) of H[Aib]EK([PEG2′-PEG2′-γGlu-Stearoyl])S[αMeF]TSDV[αMeS]S[αMeF]LEGEAA[αMeK]E[αMeF]IA[αMeF]VV[αMeK]GG-NH2 [SEQ ID NO 125] , can you help?
24.9

The reported measurements were obtained from patent US20200079833A1.
